experiment: yeast display, Sf9 membrane polyspecificity reagent, FACS + sequencing; frameworks hold sequencing errors
Quantity Name: polyreactivity (PSR sort gate)

As a guide, the following entries are already answered.
residue_string=QVQLVESGGGLVQAGGSLRLSCAASGSTFSYAMGWYRQAPGKERELVAAITIGGRTSYADSVKGRFTISRDNAKNTVYLQMNSLKPEDTAVYYCAAEGYYPVYYYVYYGYDYWGQGTQVTVSS quantity_name="polyreactivity (PSR sort gate)" measured_result="low polyreactivity"
residue_string=QVQLVESGGGLVQAGGSLRLSCAASGRIFFSYMGWYRQAPGKERELVAAISSGGSTYYADSVKGRFTISRDNAKNTVYLQMNSLKPEDTAVYYCAARYRLDGTHMTGYAYYSWGQGTQVTVSS quantity_name="polyreactivity (PSR sort gate)" measured_result="high polyreactivity"
residue_string=QVQLVESGGRLVQAGGSLRLSCAASGRIFKSYAMGWDRQAPGKERELVAAISRSGGRTYYADSVKGRFTISRDTAKNTVYLQMICLKPEDTAVYFCAGTTIVAPYWGQGTQVTVST quantity_name="polyreactivity (PSR sort gate)" measured_result="low polyreactivity"
residue_string=QVQLVESGGGLVQAGGSLRLICAASGFIFGDYTMGWYRPAPGKEREVVAAITWYGDSTYYADSVKGRFTISRDNAKNTVYLQMNTLKTEDTAVYYCNAVNDWYYAYYGVTSFRSYDYWGQGSQVTVSS quantity_name="polyreactivity (PSR sort gate)" measured_result="low polyreactivity"
residue_string=QVQHVESGGGLVQAGGSLRLSCASSGRIFSDYAMGWYRPAPGKERELVAAISRSGTRTYYADSVKGRFTISRDNAKNTVYFQMISLKPEDTAVYYCAAKTQSGRAGQEEDYWGQGTQVTVSS quantity_name="polyreactivity (PSR sort gate)" measured_result="high polyreactivity"
residue_string=QVQLVESGGGLVQAGGSLRLSCAASGSIFYYYAMGWYRQAPGKERELVAAITVSGGSTYYADSVKGRFTISRDNAKNTVYLQMNSLKPEDTAVYYCAAVSLFRDSQFDYWGQGTQVTVSS quantity_name="polyreactivity (PSR sort gate)" measured_result="low polyreactivity"
residue_string=QVQLVESGGGLVQAGGSLRLSCAASGRIFYIYAMGWYRQAPGKERELVASITSSGTSTYADSVKGRFTISRDNAKNTVYLQMNSLKPEDTAVYYCNARGYPKSWRYSRGYEYWGQGTQVTVSS quantity_name="polyreactivity (PSR sort gate)" measured_result="low polyreactivity"
residue_string=QVQLVESGGGLVQAGGSLRLSCAASGRIFVHNAMGWYRQAPGKERELVAAISSGGSTYYADSVKGRFTISRDNAKNTVYLQMNSLKPEDTAVYYCAKYAYYKKYDYWGQGTQVTVSS quantity_name="polyreactivity (PSR sort gate)" measured_result="high polyreactivity"
residue_string=QVQLVESGGGLVQAGGSLRIRCAASGSTFSEYDMGWYRQAPGKERELVAAITTSGGSTYYADSVKGRFTISSDNAKNTVYLQMNSLKPEDTAVYYCAADSIGNYLLYDYWGQGTQVSVSS quantity_name="polyreactivity (PSR sort gate)" measured_result="low polyreactivity"
residue_string=QVQLVESGGGLVQAGGSLRLSCAGSGFTFAYYAMGWYRQAPGKERELVAAITRGGGRTFYADSVKGRFTISRDNAKNTVYLQMNSLKPEDTAVYYCAAVKDTTNSRGYGYWGQGTQVTVSS quantity_name="polyreactivity (PSR sort gate)" measured_result="high polyreactivity"

Next up:
Req: # return recorded polyreactivity (PSR sort gate) for input QVQLVESGGGLVQAGGSLRLSCAASGSIFFAYAMGWYRQAPGKERELVAAITSGVSTNYADSVKGRFTISRDNAKNTVYLQMNSLKPEDTAVYYCNADFDYGFDAGLAVQVVIHDYWGQGTQVTVSS
Resp: low polyreactivity
